# test description: Cytotoxicity against CHO-K1 cells assessed as reduction in cell viability incubated for 24 hrs by MTT assay
# Format: toxicity, cell-based
# test parameters: Chinese hamster (Cricetulus griseus)
Reported IC50 at 24 h maps to class as: label 0: < 100 µM; label 1: ≥ 100 µM and < 300 µM; label 2: ≥ 300 µM

{"mol": "c1ccc2c(c1)CCc1ccccc1C2N1CCOCC1", "class label": "label 0"}
{"mol": "C1=Cc2ccccc2C(N2CCOCC2)c2ccccc21", "class label": "label 1"}
{"mol": "CC(C)NC1c2ccccc2CCc2ccccc21", "class label": "label 1"}
{"mol": "COCCNC1c2ccccc2C=Cc2ccccc21", "class label": "label 2"}
{"mol": "CCNC1c2ccccc2C=Cc2ccccc21", "class label": "label 2"}
{"mol": "Cl.OCCNC1c2ccccc2CCc2ccccc21", "class label": "label 2"}
{"mol": "CC(C)NC1c2ccccc2C=Cc2ccccc21", "class label": "label 1"}
{"mol": "CCCCNC1c2ccccc2CCc2ccccc21", "class label": "label 1"}
{"mol": "CCN1CCN(C2c3ccccc3CCc3ccccc32)CC1", "class label": "label 1"}
{"mol": "C1=Cc2ccccc2C(NC2CCCCC2)c2ccccc21", "class label": "label 0"}
{"mol": "CNC1c2ccccc2CCc2ccccc21", "class label": "label 2"}

* * *

# target: Glutamate NMDA receptor; GRIN1/GRIN2B (Homo sapiens, UniProt Q05586+Q13224)
# test description: Antagonist activity at human GluN1/GluN2B receptor expressed in HEK293 cells assessed as inhibition of L-glutamate induced response at 3 uM at -60 mV membrane potential by patch clamp electrophysiology analysis
# Type: cell-based
# test parameters: filed as antagonist
quantity measured: inhibition (%)

{"mol": "C1=Cc2ccccc2C(N2CCOCC2)c2ccccc21", "endpoint result": 57.6}
{"mol": "OCCNC1c2ccccc2C=Cc2ccccc21", "endpoint result": 48.8}
{"mol": "CC(C)CNC1c2ccccc2C=Cc2ccccc21.Cl", "endpoint result": 91.8}
{"mol": "CCCCNC1c2ccccc2CCc2ccccc21", "endpoint result": 85.8}
{"mol": "CNC1c2ccccc2CCc2ccccc21", "endpoint result": 71}
{"mol": "c1ccc2c(c1)CCc1ccccc1C2NC1CC1", "endpoint result": 53.6}
{"mol": "COCCNC1c2ccccc2C=Cc2ccccc21", "endpoint result": 60}
{"mol": "CCN(CC)C1c2ccccc2CCc2ccccc21", "endpoint result": 75}
{"mol": "C1=Cc2ccccc2C(N2CCCC2)c2ccccc21", "endpoint result": 85.5}

* * *

# target: Glutamate NMDA receptor; GRIN1/GRIN2A (Homo sapiens, UniProt Q05586+Q12879)
# test description: Antagonist activity at human GluN1/GluN2A receptor expressed in HEK293 cells assessed as inhibition of L-glutamate induced response at 3 uM at -60 mV membrane potential by patch clamp electrophysiology analysis
# Format: cell-based
# test parameters: filed as antagonist

{"mol": "c1ccc2c(c1)CCc1ccccc1C2NC1CCCCC1", "inhibition, %": 79.4}
{"mol": "CC(C)NC1c2ccccc2CCc2ccccc21", "inhibition, %": 52.2}
{"mol": "Cl.OCCNC1c2ccccc2CCc2ccccc21", "inhibition, %": 48}
{"mol": "c1ccc2c(c1)CCc1ccccc1C2NC1CC1", "inhibition, %": 40.1}
{"mol": "c1ccc2c(c1)CCc1ccccc1C2N1CCCC1", "inhibition, %": 49.8}
{"mol": "C1=Cc2ccccc2C(N2CCCC2)c2ccccc21", "inhibition, %": 48.6}
{"mol": "CC(C)NC1c2ccccc2C=Cc2ccccc21", "inhibition, %": 75.6}
{"mol": "CNC1c2ccccc2CCc2ccccc21", "inhibition, %": 82.3}
{"mol": "CC(C)CNC1c2ccccc2C=Cc2ccccc21.Cl", "inhibition, %": 93.2}
{"mol": "C1=Cc2ccccc2C(NC2CCCCC2)c2ccccc21", "inhibition, %": 92.1}
{"mol": "CCCCNC1c2ccccc2CCc2ccccc21", "inhibition, %": 76.4}
{"mol": "CCCCNC1c2ccccc2C=Cc2ccccc21", "inhibition, %": 81.1}
{"mol": "CC(C)CNC1c2ccccc2CCc2ccccc21", "inhibition, %": 76.8}
{"mol": "CNC1c2ccccc2C=Cc2ccccc21", "inhibition, %": 54.3}
{"mol": "C1=Cc2ccccc2C(NC2CC2)c2ccccc21", "inhibition, %": 45}
{"mol": "CCN(CC)C1c2ccccc2CCc2ccccc21", "inhibition, %": 68.4}

* * *

Listing: IC50 at 24 h of selected compounds
# test description: Cytotoxicity against CHO-K1 cells assessed as reduction in cell viability incubated for 24 hrs by MTT assay
# Type: toxicity, cell-based
# test parameters: Chinese hamster (Cricetulus griseus)

{"mol": "CCCCNC1c2ccccc2C=Cc2ccccc21", "IC50 at 24 h [µM]": 101}
{"mol": "c1ccc2c(c1)CCc1ccccc1C2N1CCCC1", "IC50 at 24 h [µM]": 97.7}
{"mol": "CNC1c2ccccc2C=Cc2ccccc21", "IC50 at 24 h [µM]": 299}
